Test Protocol: Pharmacokinetic evaluation following a single oral and intravenous administration
Format: in vivo, CD1 mouse
Assay Context: CD1, mouse, plasma, iv, 1 mg/kg, Table 4, IV Dose: 1 mg/kg, Mouse 1; read-out: AUClast
Measured Parameter: AUC(0-t) (ng·h/mL)
API: value field is a number in ng·h/mL; no unit string.

Prompt: Write down AUC(0-t) measured for item CNCc1ccc(C[C@H](NC(C)=O)c2nnc(-c3cccc(OC(F)(F)F)c3)s2)cc1
Response: 462

###

Test Protocol: Pharmacokinetic evaluation following a single oral and intravenous administration
Assay type: in vivo, CD1 mouse
Assay Context: CD1, mouse, plasma, iv, 1 mg/kg, Table 9, IV Dose: 1 mg/kg, 2 h, Mouse 3; read-out: Concentration
Measured Parameter: concentration at 2 h (ng/mL)
Please give a number only; it is taken to be in ng/mL.

Prompt: State its concentration at 2 h for this compound: CC(=O)N[C@@H](Cc1ccc(CN(C)C)cc1)c1nnc(-c2cccc(OC(F)(F)F)c2)s1 [Compound 42320]
Response: 25.9

###

Test Protocol: Pharmacokinetic evaluation following a single oral and intravenous administration
Format: in vivo, CD1 mouse
Assay Context: CD1, mouse, plasma, iv, 1 mg/kg, Table 3, IV Dose: 1 mg/kg, 0.25 h, mean; read-out: Concentration, Mean
Measured Parameter: concentration at 0.25 h (ng/mL)
Just the number please, in ng/mL, no unit attached.

Prompt: Please list concentration at 0.25 h recorded for the compound CNCc1ccc(C[C@H](NC(C)=O)c2nnc(-c3cccc(OC(F)(F)F)c3)s2)cc1
Response: 73.6

###

Test Protocol: Pharmacokinetic evaluation following a single oral and intravenous administration
Type: in vivo, CD1 mouse
Assay Context: CD1, mouse, plasma, po, 5 mg/kg, Table 12, PO Dose: 5 mg/kg, Mouse 6; read-out: AUClast
Measured Parameter: AUC(0-t) (ng·h/mL)
Lab book: enter the figure in ng·h/mL, no units written.

Prompt: Please report AUC(0-t) for the following compound: CC(=O)N[C@@H](Cc1ccc(CN(C)C)cc1)c1nnc(-c2cccc(OC(F)(F)F)c2)s1 [Compound 42320]
Response: 940

###

Test Protocol: Pharmacokinetic evaluation following a single oral and intravenous administration
Format: in vivo, CD1 mouse
Assay Context: Table 6, PO Dose: 5 mg/kg, mean
Measured Parameter: AUClast/D, Mean
A bare number is not enough; add the unit after it.

Prompt: Specify measured AUClast/D, Mean for CNCc1ccc(C[C@H](NC(C)=O)c2nnc(-c3cccc(OC(F)(F)F)c3)s2)cc1 .
Response: 358 h·ng/mL per mg/kg

###

Test Protocol: Pharmacokinetic evaluation following a single oral and intravenous administration
Assay type: in vivo, CD1 mouse
Assay Context: CD1, mouse, plasma, po, 5 mg/kg, Table 5, PO Dose: 5 mg/kg, 24 h, Mouse 4; read-out: Concentration
Measured Parameter: concentration at 24 h (ng/mL)
Value expressed in ng/mL; do not type the unit.

Prompt: Look up and state reported concentration at 24 h for CNCc1ccc(C[C@H](NC(C)=O)c2nnc(-c3cccc(OC(F)(F)F)c3)s2)cc1 [Compound 42140]
Response: 29.8

###

Test Protocol: Pharmacokinetic evaluation following a single oral and intravenous administration
Assay type: in vivo, CD1 mouse
Assay Context: CD1, mouse, plasma, iv, 1 mg/kg, Table 9, IV Dose: 1 mg/kg, 4 h, Mouse 1; read-out: Concentration
Measured Parameter: concentration at 4 h (ng/mL)
Please respond with the number in ng/mL and leave the unit unwritten.

Prompt: Query concentration at 4 h for CC(=O)N[C@@H](Cc1ccc(CN(C)C)cc1)c1nnc(-c2cccc(OC(F)(F)F)c2)s1
Response: 11.9
